# Test system: RUES2-GLR cells
# assay.protocol: in vitro
# test.conditions: human, 48 h
reported.metric: Cell Count ACC (µM)

[P] O=c1[nH]c(=O)n([C@H]2C[C@H](O)[C@@H](CO)O2)cc1Br
[Q] COc1cccc2c1C(=O)c1c(O)c3c(c(O)c1C2=O)C[C@@](O)(C(=O)CO)C[C@@H]3O[C@H]1C[C@H](N)[C@H](O)[C@H](C)O1
q: So which one has the bigger Cell Count ACC here, P or Q ? Answer with the label corresponding to your selection.
a: P

###

# Tested on: SOX17 (endoderm marker) in RUES2-GLR cells
# assay.protocol: DevTox GLR-Endo assay: decrease in percent SOX17-positive cells (AEID 3094, Sox17_dn)
# test.conditions: tcpl plot AEID3094, COFF 20.3
The compounds listed here are annotated with their HIT−CALL.
// return a plain number; no unit text

Solved cases below.
compound	reported.metric	quantitative.readout
CCN(CC)CCNC(=O)c1c(C)[nH]c(/C=C2\C(=O)Nc3ccc(F)cc32)c1C [Sunitinib]	HIT−CALL	1
NC(=O)c1ccc(N)nc1 [6-Aminonicotinamide, 6−aminopyridine−3−carboxamide]	HIT−CALL	1
CCCCc1oc2ccccc2c1C(=O)c1cc(I)c(OCCN(CC)CC)c(I)c1 [Amiodarone]	HIT−CALL	1

q: Given CC(=O)CC(c1ccccc1)c1c(O)c2ccccc2oc1=O (stereo not shown) [Warfarin] , state its recorded HIT−CALL.
a: 1

q: Also, O=C(c1ccc(F)cc1)C1CCN(CCn2c(=O)[nH]c3ccccc3c2=O)CC1 [Ketanserin] please.
a: 1

q: Also, COc1ccc2nc([S@@+]([O-])Cc3ncc(C)c(OC)c3C)[nH]c2c1 [Esomeprazole] please.
a: 1

q: Also, CN(C)CCOC(c1ccccc1)c1ccccc1 [Diphenhydramine] please.
a: 1

q: Also, CC(O)CO (stereo not shown) [1,2-Propylene glycol] please.
a: 0

q: Also, CO[C@H]1/C=C/O[C@@]2(C)Oc3c(C)c(O)c4c(O)c(c(/C=N/N5CCN(C)CC5)c(O)c4c3C2=O)NC(=O)/C(C)=C\C=C\[C@H](C)[C@H](O)[C@@H](C)[C@@H](O)[C@@H](C)[C@H](OC(C)=O)[C@@H]1C [Rifampicin] please.
a: 1

q: Also, O=C(O)c1ccccc1O [Salicylic Acid] please.
a: 0

q: Also, O=C1NS(=O)(=O)c2ccccc21 [Saccharin] please.
a: 0

q: Also, Nc1nc2c(ncn2COCCO)c(=O)[nH]1 [Acyclovir] please.
a: 0

q: Also, CCCC(CCC)C(=O)O [Valproic Acid] please.
a: 1

q: Also, C[C@](N)(Cc1ccc(O)c(O)c1)C(=O)O [Methyldopa] please.
a: 1

q: Also, CC(C)(c1ccc(O)cc1)c1ccc(O)cc1 [Bisphenol A] please.
a: 1

q: Also, O=C1Cc2cc(CCN3CCN(c4nsc5ccccc45)CC3)c(Cl)cc2N1 [Ziprasidone] please.
a: 1

q: Also, CC[C@H](C)C(=O)O[C@H]1C[C@@H](C)C=C2C=C[C@H](C)[C@H](CC[C@@H]3C[C@@H](O)CC(=O)O3)[C@H]21 [Lovastatin] please.
a: 1

q: Also, CC1(C)S[C@@H]2[C@H](NC(=O)Cc3ccccc3)C(=O)N2[C@H]1C(=O)O [Penicillin G] please.
a: 0

q: Also, CC1=C(/C=C/C(C)=C/C=C/C(C)=C/CO)C(C)(C)CCC1 [Retinol] please.
a: 1

q: Also, O=C1NC(=O)C(c2ccccc2)(c2ccccc2)N1 please.
a: 1

q: Also, CN1CCN2c3ccccc3Cc3ccccc3C2C1 (stereo not shown) [Mianserin] please.
a: 1

q: Also, c1cc(-c2cnn3cc(-c4ccc(OCCN5CCCCC5)cc4)cnc23)ccn1 [Dorsomorphin] please.
a: 1

q: Also, CCCCC(CC)COC(=O)c1ccccc1C(=O)O (stereo not shown) [MEHP] please.
a: 1
